Source listed as patent US9695197B2.

# tested-system: O-GlcNAcase (Rattus norvegicus (Rat))
# Sequence (Q8VIJ5 whole entry): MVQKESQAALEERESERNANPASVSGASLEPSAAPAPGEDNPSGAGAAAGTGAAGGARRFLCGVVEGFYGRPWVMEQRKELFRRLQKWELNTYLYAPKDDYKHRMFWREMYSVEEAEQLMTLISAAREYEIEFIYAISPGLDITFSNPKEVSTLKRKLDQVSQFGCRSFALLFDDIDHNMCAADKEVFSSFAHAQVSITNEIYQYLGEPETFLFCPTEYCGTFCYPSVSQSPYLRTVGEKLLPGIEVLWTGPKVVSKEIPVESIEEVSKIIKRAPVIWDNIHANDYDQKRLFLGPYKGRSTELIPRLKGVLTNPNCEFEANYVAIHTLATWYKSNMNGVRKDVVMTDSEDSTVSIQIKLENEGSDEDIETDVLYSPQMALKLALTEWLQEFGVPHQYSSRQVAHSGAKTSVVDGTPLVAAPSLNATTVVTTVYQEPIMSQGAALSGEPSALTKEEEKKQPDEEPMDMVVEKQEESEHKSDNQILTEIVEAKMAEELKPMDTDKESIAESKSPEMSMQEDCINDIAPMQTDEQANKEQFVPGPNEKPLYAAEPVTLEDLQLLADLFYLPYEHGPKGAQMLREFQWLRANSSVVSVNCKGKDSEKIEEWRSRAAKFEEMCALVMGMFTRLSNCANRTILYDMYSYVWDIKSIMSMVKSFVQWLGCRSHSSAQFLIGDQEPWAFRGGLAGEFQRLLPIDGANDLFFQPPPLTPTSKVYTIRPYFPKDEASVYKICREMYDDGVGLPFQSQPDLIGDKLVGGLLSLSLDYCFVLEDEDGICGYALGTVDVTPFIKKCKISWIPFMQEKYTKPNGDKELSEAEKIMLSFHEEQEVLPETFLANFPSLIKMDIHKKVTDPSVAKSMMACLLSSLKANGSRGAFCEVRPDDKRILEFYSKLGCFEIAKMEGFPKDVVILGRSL
# experiment-description: Cell-based ELISA for cellular activity of compounds that inhibit O-GlcNAcase (O-GlcNAcylated protein detected with RL-2 antibody)
# stated-conditions: rat PC-12 cells, treated 24 h, O-GlcNAcylated protein by RL-2 ELISA
Recorded EC50 by entry

# count of solved cases: 2
molecule: CCCNC1=N[C@H]2[C@@H](S1)S[C@H](CO)[C@@H](O)[C@@H]2O [Example 3]
reported: 29 nM

molecule: CNC1=N[C@H]2[C@@H](S1)S[C@H](CO)[C@@H](O)[C@@H]2O [Example 4]
reported: 3 nM

Input CCNC1=N[C@H]2[C@@H](S1)S[C@H](CO)[C@@H](O)[C@@H]2O [Example 2] . Output EC50: 139 nM

Entry under test: CCNC1=N[C@H]2[C@@H](S1)S[C@H](C(F)F)[C@@H](O)[C@@H]2O [Example 5] . Its EC50 was 349 nM

----------
Measured Ki values are reported for all entries that follow.
# tested-system: human O-GlcNAcase (Homo sapiens (Human), UniProt O60502)
# Sequence (O60502 whole entry): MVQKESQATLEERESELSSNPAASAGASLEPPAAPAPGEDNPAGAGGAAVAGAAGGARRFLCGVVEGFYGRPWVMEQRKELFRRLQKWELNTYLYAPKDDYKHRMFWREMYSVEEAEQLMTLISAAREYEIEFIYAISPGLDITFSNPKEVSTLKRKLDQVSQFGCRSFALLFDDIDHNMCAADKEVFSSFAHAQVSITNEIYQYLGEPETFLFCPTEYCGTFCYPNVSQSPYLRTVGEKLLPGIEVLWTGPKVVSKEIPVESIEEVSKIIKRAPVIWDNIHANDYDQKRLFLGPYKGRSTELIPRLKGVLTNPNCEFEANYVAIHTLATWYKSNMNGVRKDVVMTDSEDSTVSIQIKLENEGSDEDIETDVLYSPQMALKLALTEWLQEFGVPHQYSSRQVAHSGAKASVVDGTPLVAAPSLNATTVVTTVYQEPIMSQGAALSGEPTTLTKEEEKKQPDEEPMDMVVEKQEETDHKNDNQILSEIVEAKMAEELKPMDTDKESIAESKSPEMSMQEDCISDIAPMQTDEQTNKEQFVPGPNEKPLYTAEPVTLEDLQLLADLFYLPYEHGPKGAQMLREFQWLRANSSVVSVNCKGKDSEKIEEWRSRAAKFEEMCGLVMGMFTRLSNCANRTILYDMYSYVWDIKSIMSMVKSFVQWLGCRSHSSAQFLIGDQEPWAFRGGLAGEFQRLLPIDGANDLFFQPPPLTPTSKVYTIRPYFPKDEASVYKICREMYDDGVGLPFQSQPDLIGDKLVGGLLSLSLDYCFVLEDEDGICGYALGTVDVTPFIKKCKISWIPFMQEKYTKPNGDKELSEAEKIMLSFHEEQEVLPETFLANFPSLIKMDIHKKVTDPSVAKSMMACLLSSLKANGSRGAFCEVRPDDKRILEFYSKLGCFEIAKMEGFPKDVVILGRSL
Provide the reading as a plain figure in nM.

structure-smiles-string: CCCNC1=N[C@H]2[C@@H](S1)S[C@H](CO)[C@@H](O)[C@@H]2O
tested-system: human O-GlcNAcase (Homo sapiens (Human), UniProt O60502)
Ki / nM: 1.4

Let us move to another entry and its Ki.
Entry CCNC1=N[C@@H]2[C@@H](O)[C@H](O)[C@@H](CO)S[C@@H]2O1 ; assay system human O-GlcNAcase (Homo sapiens (Human), UniProt O60502); Ki recorded at 3

----------
# experiment-description: Apparent permeability (Papp), bi-directional transport in LLC-PK1 cells
# Format: in vitro ADME
# stated-conditions: pig, 1 μM test compound, t=3 h, average of A to B and B to A
quantity-measured: Papp at 3 h, 1 μM (×10⁻⁶ cm/s)
Supply the numeric figure in ×10⁻⁶ cm/s, leaving out any unit text.

Query CCNC1=N[C@H]2[C@@H](S1)S[C@H](CO)[C@@H](O)[C@@H]2O yields Papp at 3 h, 1 μM of 3.7
